Values compiled from ChEMBL document CHEMBL1154426.

tested on: Mycoplasma putrefaciens; experiment: Antimicrobial activity against Mycoplasma putrefaciens French isolates after 24 hrs by twofold serial dilution method; assay type: functional
Endpoint Name: MIC50 (µg/mL)
Report the figure in µg/mL without appending any unit label.

Worked cases, answers included:
Reported MIC50 of CN(C)[C@@H]1C(O)=C(C(N)=O)C(=O)[C@@]2(O)C(O)=C3C(=O)c4c(O)cccc4[C@@](C)(O)[C@H]3[C@H](O)[C@@H]12 : 1

Record CCn1cc(C(=O)O)c(=O)c2cc(F)c(N3CCNCC3)cc21 . Reported MIC50: 2

Moving on to the next compound.
# MIC50 (compound: O=C(O)c1cn(C2CC2)c2cc(N3CCNCC3)c(F)cc2c1=O ) is 0.25
